Reference source: the supplement of paper PMC6757056

Provide the reported normalized RNA/DNA level without ligand (log10) of each item.
B1: library; a variant is named by its letters at N, in order (parent)
chain: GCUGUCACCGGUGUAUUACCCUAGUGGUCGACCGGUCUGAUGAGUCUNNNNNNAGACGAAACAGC

variants of: B1; test: normalized RNA/DNA level without ligand (relative to sTRSVctl = 100) (log10 (% of sTRSVctl)); ligand: hypoxanthine (xanthine aptamer); higher = less ribozyme self-cleavage, higher mRNA level; conditions: HEK293T, reporter: mCherry (pCS4076), ligand present: no

Example variants with recorded normalized RNA/DNA level without ligand (log10):
> print(dat)
   sequencechange  result
1          GGGUAA    1.71
2          UCCUUU    1.94

Parameter requested: normalized RNA/DNA level without ligand (log10). Apply to each item below.
1. UUCACG
2. CCGUCG
3. ACAUUA
4. CCGAAA
5. CGAGGG
6. UUAGAC
7. GCCAUA

Response:
1: 1.8; 2: 1.69; 3: 1.85; 4: 1.7; 5: 1.3; 6: 1.82; 7: 1.85

Parameter requested: normalized RNA/DNA level without ligand (log10). Apply to each item below.
1. CAGCGA
2. GAAUAU
3. AAAUGG
4. UCGCCU
5. UAGCGG
6. UCAGCU
7. AUAUGU
8. UAUUCA

Response:
1.79
1.81
1.33
1.89
1.54
1.95
1.68
1.93

Parameter requested: normalized RNA/DNA level without ligand (log10). Apply to each item below.
1. AGGAUC
2. GUAACG
3. GUGUGU
4. GAACGA
5. AACGUU
6. CAGGCA
7. UGUCAU

Response:
[1.94, 1.59, 1.64, 1.62, 1.83, 1.68, 1.82]
